All values here come from ChEMBL document CHEMBL5576124.

# Tested on: Protein cereblon/Mitogen-activated protein kinase kinase kinase kinase 1 (Homo sapiens, UniProt Q92918+Q96SW2)
# Sequence (Q92918 whole entry, looked up): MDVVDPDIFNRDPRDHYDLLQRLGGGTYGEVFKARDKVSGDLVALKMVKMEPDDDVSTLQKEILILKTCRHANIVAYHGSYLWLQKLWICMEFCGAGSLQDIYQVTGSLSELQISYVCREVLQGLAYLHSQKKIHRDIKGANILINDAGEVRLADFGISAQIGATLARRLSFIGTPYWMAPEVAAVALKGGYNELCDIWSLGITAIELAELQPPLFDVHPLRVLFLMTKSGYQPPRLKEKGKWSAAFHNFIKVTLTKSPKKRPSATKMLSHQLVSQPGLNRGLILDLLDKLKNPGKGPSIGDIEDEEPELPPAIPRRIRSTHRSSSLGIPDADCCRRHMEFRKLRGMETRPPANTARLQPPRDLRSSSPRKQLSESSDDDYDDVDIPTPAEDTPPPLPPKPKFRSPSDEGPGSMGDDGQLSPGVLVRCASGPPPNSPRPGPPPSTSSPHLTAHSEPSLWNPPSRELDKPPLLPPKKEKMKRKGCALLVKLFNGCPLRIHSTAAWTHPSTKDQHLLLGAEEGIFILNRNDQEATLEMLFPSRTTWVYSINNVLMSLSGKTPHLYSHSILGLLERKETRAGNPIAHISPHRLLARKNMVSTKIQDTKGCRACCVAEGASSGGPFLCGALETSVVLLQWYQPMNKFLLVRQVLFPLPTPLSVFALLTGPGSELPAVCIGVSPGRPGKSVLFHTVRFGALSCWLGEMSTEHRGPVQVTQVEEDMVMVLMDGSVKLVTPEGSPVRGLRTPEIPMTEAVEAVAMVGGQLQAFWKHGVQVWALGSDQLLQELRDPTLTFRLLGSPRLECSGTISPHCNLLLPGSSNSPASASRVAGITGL
# Sequence (Q96SW2 whole entry, looked up): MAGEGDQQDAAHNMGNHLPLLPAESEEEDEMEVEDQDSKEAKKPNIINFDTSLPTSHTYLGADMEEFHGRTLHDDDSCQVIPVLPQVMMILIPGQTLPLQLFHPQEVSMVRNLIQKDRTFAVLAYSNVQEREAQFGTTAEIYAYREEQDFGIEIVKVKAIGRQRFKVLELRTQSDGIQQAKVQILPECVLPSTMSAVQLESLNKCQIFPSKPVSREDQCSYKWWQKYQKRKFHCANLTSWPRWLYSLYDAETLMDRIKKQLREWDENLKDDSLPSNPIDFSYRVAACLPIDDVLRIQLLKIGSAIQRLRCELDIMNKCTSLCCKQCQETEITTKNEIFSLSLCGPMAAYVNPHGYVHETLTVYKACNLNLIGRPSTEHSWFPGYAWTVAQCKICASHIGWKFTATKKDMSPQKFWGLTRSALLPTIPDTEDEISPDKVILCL
# Test: PROTAC activity at CRBN/HPK1 in human Jurkat cells assessed as maximal degradation of HPK1 protein incubated for 24 hrs by Western blotting analysis relative to control
# Type: cell-based
// label = 1 if Emax is not less than 60%, otherwise -1

# Compound, Assigned category
measured = [
    ("Cc1cc(-c2c[nH]c3ncc(-c4ccc(N5CCN(CC6CN(c7ccc8c(c7)C(=O)N(C7CCC(=O)NC7=O)C8=O)C6)CC5)cc4)nc23)ccc1C(=O)N(C)C (configuration not stated)", 1),
    ("Cc1cc(-c2c[nH]c3ncc(-c4ccc(C5CCN(C6CN(C(=O)C7CCN(c8ccc(C(=O)NC9CCC(=O)NC9=O)cc8)CC7)C6)CC5)cc4)nc23)ccc1C(=O)N(C)C (configuration not stated)", -1),
    ("Cc1cc(-c2c[nH]c3ncc(-c4ccc(C5CCN(C6CN(c7cccc8c7C(=O)N(C7CCC(=O)NC7=O)C8=O)C6)CC5)cc4)nc23)ccc1C(=O)N(C)C (configuration not stated)", 1),
    ("Cc1cc(-c2c[nH]c3ncc(-c4ccc(N5CCN(c6ccc7c(c6)C(=O)N(C6CCC(=O)NC6=O)C7=O)CC5)cc4)nc23)ccc1C(=O)N(C)C (configuration not stated)", -1),
    ("Cc1cc(-c2c[nH]c3ncc(-c4ccc(N5CCN(C6CCN(c7ccc8c(c7)C(=O)N(C7CCC(=O)NC7=O)C8=O)CC6)CC5)cc4)nc23)ccc1C(=O)N(C)C (configuration not stated)", -1),
]

For this compound, is measured Emax 60% or higher? Cc1cc(-c2c[nH]c3ncc(-c4ccc(C5CCN(C(=O)CCOc6cccc7c6C(=O)N(C6CCC(=O)NC6=O)C7=O)CC5)cc4)nc23)ccc1C(=O)N(C)C (configuration not stated)
-1

For this compound, is measured Emax 60% or higher? Cc1cc(-c2c[nH]c3ncc(-c4ccc(C5CCN(CC6CCN(c7ccc8c(c7)C(=O)N(C7CCC(=O)NC7=O)C8=O)CC6)CC5)cc4)nc23)ccc1C(=O)N(C)C (configuration not stated)
1

For this compound, is measured Emax 60% or higher? Cc1cc(-c2c[nH]c3ncc(-c4ccc(N5CCN(c6cccc7c6C(=O)N(C6CCC(=O)NC6=O)C7=O)CC5)cc4)nc23)ccc1C(=O)N(C)C (configuration not stated)
-1

For this compound, is measured Emax 60% or higher? Cc1cc(-c2c[nH]c3ncc(-c4ccc(C5CCN(C6CN(C(=O)CNc7cccc8c7C(=O)N(C7CCC(=O)NC7=O)C8=O)C6)CC5)cc4)nc23)ccc1C(=O)N(C)C (configuration not stated)
-1

For this compound, is measured Emax 60% or higher? Cc1cc(-c2c[nH]c3ncc(-c4ccc(C5CCN(CC6CCN(C7CN(c8ccc9c(c8)C(=O)N(C8CCC(=O)NC8=O)C9=O)C7)CC6)CC5)cc4)nc23)ccc1C(=O)N(C)C (configuration not stated)
-1

For this compound, is measured Emax 60% or higher? Cc1cc(-c2c[nH]c3ncc(-c4ccc(N5CCN(CC6CCN(c7ccc8c(c7)C(=O)N(C7CCC(=O)NC7=O)C8=O)C6)CC5)cc4)nc23)ccc1C(=O)N(C)C (configuration not stated)
-1

----------
# Test: AUC (0 to t) in ICR mouse at 10 mg/kg,po measured upto 24 hrs by LC-MS analysis
# Type: ADME, organism-based
# Particulars: in vivo
Observable: AUC(0-t) at 24 h (µg·h/mL)
Give bare numbers, in µg·h/mL.

# lookup: AUC(0-t) at 24 h of Cc1cc(-c2c[nH]c3ncc(-c4ccc(C5CCN(C6CN(c7ccc8c(c7)C(=O)N(C7CCC(=O)NC7=O)C8=O)C6)CC5)cc4)nc23)ccc1C(=O)N(C)C (stereo unspecified)
137
